STUDY_SYSTEM: hBPGM (Homo sapiens, UniProt P07738)
Sequence (P07738 1-259): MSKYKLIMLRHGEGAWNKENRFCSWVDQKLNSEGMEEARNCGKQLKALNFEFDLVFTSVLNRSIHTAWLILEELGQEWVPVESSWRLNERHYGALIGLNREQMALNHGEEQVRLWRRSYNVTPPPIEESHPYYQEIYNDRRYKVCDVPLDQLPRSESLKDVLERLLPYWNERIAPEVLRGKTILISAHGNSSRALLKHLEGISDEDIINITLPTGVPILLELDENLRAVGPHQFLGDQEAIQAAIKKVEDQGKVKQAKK
PROCEDURE_SUMMARY: BPGM synthase assay
Type: biochemical
CONDITION_CONTEXT: Table 6; read-out: huBPGM: synthase Enzyme IC50
pIC50: −log10 of the molar value.
READOUT_LABEL: pIC50

Sample records with pIC50:
Cc1nc(COc2ncccn2)sc1-c1cccc(-c2ccc3[nH]c(=O)[nH]c3c2)n1 | 5.17
Cc1nc(CNc2cccnn2)sc1-c1cccc(-c2cc(F)c3nn[nH]c3c2F)n1 | 7.60
Cc1nc(COC(=O)N2CCC(O)C2)sc1-c1csc(-c2cc(F)c(O)c(F)c2F)n1 (stereo not shown) | 5.62

1 = Cc1nc(CNC(=O)C(C)(C)C)sc1-c1csc(-c2cc3nn[nH]c3cc2F)n1
2 = Cc1nc(Cc2ccccn2)sc1-c1cccc(-c2ccc(C(=O)NS(C)(=O)=O)cc2)c1
Lowest pIC50? choose 1 or 2 Output the label that corresponds to your choice.
2

I = Cc1nc(C(=O)N2CCC(O)C2)sc1-c1cccc(-c2cc(F)c3[nH]nnc3c2F)n1 (stereo not shown)
II = Cc1nc(COC(C)C(=O)N(C)C)sc1-c1csc(-c2cc(F)c3[nH]nnc3c2F)n1 (stereo not shown)
III = Cc1nc(COCC(=O)N(C)C)sc1-c1cccc(-c2cc(F)c3nn[nH]c3c2F)n1
Parameters: sort_field (pIC50), sort_dir (desc). Put the labels in the requested order and list them out.
III, II, I
(III: 7.37, II: 7.13, I: 5.36)

P = Cc1nc(COc2ccccn2)sc1-c1cccc(-c2cc(F)c(O)c(F)c2)n1
Q = Cc1nc(CNc2ncccn2)sc1-c1cccc(-c2cc(F)c3nn[nH]c3c2F)n1
Of P and Q , whose reported pIC50 is the larger number? Output the label that corresponds to your choice.
Q

A = COCc1nc(C)c(-c2cccc(-c3cc(F)c4nn[nH]c4c3F)n2)s1 [Example 68]
B = Cc1nc(COC(=O)N2CCC(C)(O)C2)sc1-c1cccc(-c2cc(F)c3[nH]nnc3c2F)n1 (stereo not shown)
Of A and B , whose reported pIC50 is the larger number? Output the label that corresponds to your choice.
B

I = Cc1nc(COCC(=O)N2CCN(C)CC2)sc1-c1csc(-c2cc(F)c(O)c(F)c2F)n1
II = Cc1nc(COc2ncccn2)sc1-c1cccc(-c2ccc(-c3noc(=O)[nH]3)cc2)n1
III = Cc1nc(CNC(=O)C(C)(C)C)sc1-c1cccc(-c2cc(F)c(O)c(F)c2F)c1
Parameters: sort_field (pIC50), sort_dir (desc). Put the labels in the requested order and list them out.
II, I, III
(II: 6.85, I: 5.80, III: 4.89)

P = Cc1nc(C)c(-c2cccc(-c3ccc(C(=O)NS(=O)(=O)c4ccccc4)cc3)n2)s1
Q = Cc1nc(COc2ncccn2)sc1-c1csc(-c2cc(F)c(O)c(F)c2F)c1
Lowest pIC50? choose P or Q Output the label that corresponds to your choice.
P
(P: 5.48, Q: 6.96)

A = Cc1nc(COc2ncccn2)sc1-c1cccc(-c2cc(F)c(O)c(F)c2C)n1
B = Cc1nc(C)c(-c2csc(-c3cc(F)c4[nH]nnc4c3F)n2)s1
C = Cc1nc(COc2ncccn2)sc1-c1ccnc(-c2cc(F)c(O)c(C#N)c2)c1
Hey, quick one: sort these by pIC50, low to high? Put the labels in the requested order and list them out.
A, C, B

P = Cc1nc(CNC(=O)N2CCC(O)C2)sc1-c1cccc(-c2cc(F)c3nn[nH]c3c2F)n1 (stereo not shown)
Q = Cc1nc(COc2ccccn2)sc1-c1csc(-c2cc3nn[nH]c3c(F)c2F)n1
R = Cc1nc(COCC(C)O)sc1-c1cccc(-c2cc(F)c3nn[nH]c3c2F)n1 (stereo not shown)
Parameters: sort_field (pIC50), sort_dir (desc). Put the labels in the requested order and list them out.
R, P, Q

---

STUDY_SYSTEM: hBPGM (Homo sapiens)
PROCEDURE_SUMMARY: BPGM synthase assay
Type: biochemical
CONDITION_CONTEXT: Table 6; read-out: huBPGM: synthase Enzyme IC50
Procedure: […] To the assay plate was added Enzyme Solution (20 uL) to columns 2-22 and 24 of the assay plate. […] During this time period, the NADH fluorescence was read at ex: 360/em: 460. […] The resorufin fluorescence was then read at ex:544/em:590.
READOUT_LABEL: IC50 (nM)

Sample records with IC50:
Cc1nc(COc2ccccn2)sc1-c1csc(-c2cc(F)c(O)c(F)c2F)n1 | 510
COC(=O)NCc1nc(C)c(-c2csc(-c3cc(F)c(O)c(F)c3)n2)s1 | 1100
Cc1nc(CN/C(=N/C#N)N(C)C)sc1-c1cccc(-c2cc(F)c3nn[nH]c3c2F)n1 | 48

I = Cc1nc(COc2ncccn2)sc1-c1csc(-c2cc(F)c3[nH]nnc3c2F)n1
II = Cc1nc(COc2ncccn2)sc1-c1cccc(-c2ccc3c(c2)C(=O)NC3=O)n1
Lowest IC50? choose I or II Output the label that corresponds to your choice.
I

---

STUDY_SYSTEM: hBPGM (Homo sapiens, UniProt P07738)
PROCEDURE_SUMMARY: BPGM synthase assay
Type: biochemical
CONDITION_CONTEXT: Table 6; read-out: huBPGM: synthase Enzyme IC50
READOUT_LABEL: IC50 (nM)

Cc1nc(COCC(=O)N2CCCC2)sc1-c1csc(-c2cc(F)c(O)c(F)c2F)n1 [Example 127] | 430

1 = Cc1nc(COc2ncccn2)sc1-c1cccc(-c2cc(F)c3[nH]nnc3c2)c1 [Example 177]
2 = COC(=O)NCc1nc(C)c(-c2csc(-c3cc(F)c4[nH]nnc4c3)n2)s1 [Example 214]
Lowest IC50? choose 1 or 2 Output the label that corresponds to your choice.
2
(2: 180 nM, 1: 440 nM)

---

STUDY_SYSTEM: hBPGM (Homo sapiens)
PROCEDURE_SUMMARY: BPGM synthase assay
Format: biochemical
CONDITION_CONTEXT: Table 6; read-out: huBPGM: synthase Enzyme IC50
READOUT_LABEL: IC50 (nM)

Cc1nc(COc2ncccn2)sc1-c1cccc(-c2ccc(O)c(C#N)c2)n1 | 290
Cc1nc(C)c(-c2ccn(-c3cc(F)c4[nH]nnc4c3F)n2)s1 | 4100
Cc1ccnc(OCc2nc(C)c(-c3cccc(-c4cc(F)c5nn[nH]c5c4F)n3)s2)n1 | 15
COC(=O)NCc1nc(C)c(-c2csc(-c3ccc4[nH]nnc4c3F)n2)s1 [Example 166] | 110
Cc1nc(COc2ccccn2)sc1-c1csc(-c2cc(F)c(OP(=O)(O)O)c(F)c2F)n1 | 3000

1 = Cc1nc(COC(=O)N(C)C)sc1-c1cccc(-c2cc(F)c(O)c(F)c2F)n1
2 = COC(=O)NCc1nc(C)c(-c2csc(-c3ccc(O)c(F)c3)n2)s1
Lowest IC50? choose 1 or 2 Output the label that corresponds to your choice.
1

---

STUDY_SYSTEM: hBPGM (Homo sapiens, UniProt P07738)
PROCEDURE_SUMMARY: BPGM synthase assay
Assay type: biochemical
CONDITION_CONTEXT: Table 6; read-out: huBPGM: synthase Enzyme IC50
pIC50: −log10 of the molar value.
READOUT_LABEL: pIC50

Sample records with pIC50:
Cc1nc(COc2ccccn2)sc1-c1cccc(-c2cc(F)c(O)c(C#N)c2)n1 | 5.48
Cc1nc(CNCC(C)(C)C)sc1-c1cccc(-c2cc(F)c3nn[nH]c3c2F)n1 | 6.59
Cc1nc(CNC(=O)c2cccnn2)sc1-c1cccc(-c2cc(F)c(O)c(F)c2F)n1 | 6.17
Cc1nc(CNc2ncccn2)sc1-c1cccc(-c2cc(F)c(O)c(F)c2F)n1 | 6.66
Cc1nc(COc2ncccn2)sc1-c1ccnc(-c2cc(O)c(C#N)c(F)c2)c1 | 6.60

P = Cc1nc(COC(=O)N(C)C)sc1-c1cccc(-c2cc(F)c3nn[nH]c3c2F)n1
Q = Cc1nc(CO)sc1-c1csc(-c2cc(F)c(O)c(F)c2F)n1
Lowest pIC50? choose P or Q Output the label that corresponds to your choice.
Q
(Q: 5.19, P: 7.64)
